# SYSTEM: T1, mouse common cytokine receptor γ-chain (IL-2Rγ) (mouse, UniProt P34902 23-263, limits assumed)
# T1 construct: Recombinant mouse IL-2Rγ protein; also called mo IL-2R; mouse IL-2R gamma
# T1 sequence (looked up): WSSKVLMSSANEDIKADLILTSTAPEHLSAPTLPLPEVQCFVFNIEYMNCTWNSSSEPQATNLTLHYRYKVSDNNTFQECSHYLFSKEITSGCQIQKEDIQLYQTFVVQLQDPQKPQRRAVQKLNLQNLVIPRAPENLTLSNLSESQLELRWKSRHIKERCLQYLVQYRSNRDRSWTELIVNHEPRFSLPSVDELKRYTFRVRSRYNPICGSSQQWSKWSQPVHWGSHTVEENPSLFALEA
# EXPERIMENT DESCRIPTION: P.E. off-rate SPR
VALUE KIND: koff (s⁻¹)
Please reply with the bare figure in s⁻¹ and do not write the unit itself.

Here are 3 binders together with their reported answers.
FJ1427_P035MP07F01 (VHH, tested as periplasmic extract; also called Clone nr) VHH: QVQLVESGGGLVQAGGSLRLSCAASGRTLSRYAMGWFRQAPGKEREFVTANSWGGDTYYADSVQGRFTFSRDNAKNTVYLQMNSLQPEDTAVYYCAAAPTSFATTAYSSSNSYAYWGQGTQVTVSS = 0.0855
FJ1427_P035MP07G04 (VHH, tested as periplasmic extract; also called Clone nr) VHH: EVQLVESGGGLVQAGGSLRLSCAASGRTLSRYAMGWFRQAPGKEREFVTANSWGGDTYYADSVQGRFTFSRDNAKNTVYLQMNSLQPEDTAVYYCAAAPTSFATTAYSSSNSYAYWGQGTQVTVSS = 0.112
FJ1427_P035MP07H02 (VHH, tested as periplasmic extract; also called Clone nr; 592) VHH: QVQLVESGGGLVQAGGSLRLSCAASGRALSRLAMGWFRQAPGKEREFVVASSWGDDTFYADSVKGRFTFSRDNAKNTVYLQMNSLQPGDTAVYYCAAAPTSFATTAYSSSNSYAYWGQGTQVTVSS = 0.0123

Would you kindly look at the next entry?
Recorded koff (binder FJ1427_P035MP07D03 (VHH, tested as periplasmic extract; also called Clone nr) VHH: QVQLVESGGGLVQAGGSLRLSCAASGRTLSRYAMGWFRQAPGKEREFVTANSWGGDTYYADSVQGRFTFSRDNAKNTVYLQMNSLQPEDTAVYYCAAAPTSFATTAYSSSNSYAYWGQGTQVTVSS ): 0.107
